- Test system: Vero E6 infected with SARS-CoV-2
- experimentalProtocol: inhibition of SARS-CoV-2 cytopathic effect; higher = more antiviral protection, active = above 15
- assayConditions: 1 nM; 48 h
# reported inhibition of SARS-CoV-2 cytopathic effect; entries follow

Log: Vero E6 infected with SARS-CoV-2, compound `CC(C)(C)c1ccc(/C=C/C(=O)Nc2ccc3c(c2)OCCO3)cc1` , inhibition of SARS-CoV-2 cytopathic effect = -2.25% (inactive)

Here C=C[C@]1(C)C[C@@H](OC(=O)CSC(C)(C)CNC(=O)[C@H](N)C(C)C)[C@]2(C)[C@H](C)CC[C@]3(CCC(=O)[C@H]32)[C@@H](C)[C@@H]1O [valnemulin] was tested on Vero E6 infected with SARS-CoV-2, and its inhibition of SARS-CoV-2 cytopathic effect came to -0.47% (inactive)

Item Cc1ccc(/N=C/N(C)/C=N/c2ccc(C)cc2C)c(C)c1 [amitraz] was tested on Vero E6 infected with SARS-CoV-2; the reported inhibition of SARS-CoV-2 cytopathic effect is -1.29% (inactive)

For the compound `COc1ccc(N(C(=O)Oc2c(C)cccc2C)c2ccnc(Nc3ccc(N4CCN(C)CC4)cc3)n2)c(OC)c1` , the measured inhibition of SARS-CoV-2 cytopathic effect on Vero E6 infected with SARS-CoV-2 was 0.25% (inactive)

Value sought: inhibition of SARS-CoV-2 cytopathic effect, system Vero E6 infected with SARS-CoV-2, item `COc1ccccc1NC(=O)OCC1CCN(C(=O)OC(C)(C)C)CC1` . Result: 0.55% (inactive)

Field inhibition of SARS-CoV-2 cytopathic effect (Vero E6 infected with SARS-CoV-2), entry O=P(O)(NCCCl)NCCCl [palifosfamide] : 0.85% (inactive)

Measured inhibition of SARS-CoV-2 cytopathic effect for this entry CC[C@H]1OC(=O)[C@H](C)[C@@H](O[C@H]2C[C@@](C)(OC)[C@@H](O)[C@H](C)O2)[C@H](C)[C@@H](O[C@@H]2O[C@H](C)C[C@H](N(C)C)[C@H]2O)[C@](C)(O)C[C@@H](C)CN(C)[C@H](C)[C@@H](O)[C@]1(C)O [azithromycin] on Vero E6 infected with SARS-CoV-2: 0.31% (inactive)

// returns inhibition of SARS-CoV-2 cytopathic effect for C[C@](N)(Cc1ccc(O)cc1)C(=O)O [metirosine] with Vero E6 infected with SARS-CoV-2; value = 2.52% (inactive)

// compound C[C@]12CC[C@@H]3c4ccc(OS(=O)(=O)O)cc4CC[C@H]3[C@@H]1CCC2=O [estropipate] , assay Vero E6 infected with SARS-CoV-2, inhibition of SARS-CoV-2 cytopathic effect value: -1.99% (inactive)

Recorded inhibition of SARS-CoV-2 cytopathic effect for O=c1n(CCCN2CCN(c3cccc(Cl)c3)CC2)nc2ccccn12 [trazodone] on Vero E6 infected with SARS-CoV-2 was 0.53% (inactive)

Let me check: `COc1cc2c(NC3CCN(C(C)C)CC3)nc(N3CCC(F)(F)CC3)nc2cc1OCCCN1CCCC1` , system Vero E6 infected with SARS-CoV-2, measured inhibition of SARS-CoV-2 cytopathic effect is -0.61% (inactive)

Noted inhibition of SARS-CoV-2 cytopathic effect for C=C1/C(=C\C=C2/CCC[C@]3(C)[C@@H]([C@H](C)/C=C/[C@H](C)C(C)(C)O)CC[C@@H]23)C[C@@H](O)C[C@@H]1O [ercalcitriol] , tested on Vero E6 infected with SARS-CoV-2: -1.77% (inactive)

Case Clc1ccc(C(Cn2ccnc2)OCc2ccsc2Cl)c(Cl)c1 (configuration not stated) [tioconazole] , Vero E6 infected with SARS-CoV-2, inhibition of SARS-CoV-2 cytopathic effect recorded as 6.75% (inactive)

Observed inhibition of SARS-CoV-2 cytopathic effect on Vero E6 infected with SARS-CoV-2, entry CN(C)CC[C@@H](c1ccc(Cl)cc1)c1ccccn1 [chlorphenamine] , equals 0.315% (inactive)

Considering CN1CCN(c2c(F)cc3c(=O)c(C(=O)O)cn(CCF)c3c2F)CC1 [fleroxacin] , its inhibition of SARS-CoV-2 cytopathic effect with Vero E6 infected with SARS-CoV-2 was recorded as -1.94% (inactive)

# COc1cc(OC)cc(N(CCNC(C)C)c2ccc3ncc(-c4cnn(C)c4)nc3c2)c1 [erdafitinib] with Vero E6 infected with SARS-CoV-2: inhibition of SARS-CoV-2 cytopathic effect is 1.71% (inactive)

Lab note: compound C=CCN1CCc2nc(N)sc2CC1 [talipexole] tested on Vero E6 infected with SARS-CoV-2; recorded inhibition of SARS-CoV-2 cytopathic effect was -0.94% (inactive)

###

Listed here are compounds together with their documented inhibition of SARS-CoV-2 cytopathic effect.
- System: Vero E6 infected with SARS-CoV-2
- experimentalProtocol: inhibition of SARS-CoV-2 cytopathic effect; higher = more antiviral protection, active = above 15
- assayConditions: 8.33 nM; 48 h
Use % as the unit, but write only the number.

// below: answered compounds
                                   compound                        targetdesc  resultnumber
0  CC(C)c1ccc(NC(=O)Cn2cnc3c2c(=O)n(C)c(=O)n3C)cc1  Vero E6 infected with SARS-CoV-2           1.6
1  COc1ccc2nc(NC(=O)Nc3ccccc3)sc2c1 [frentizole]  Vero E6 infected with SARS-CoV-2          0.96

Documented inhibition of SARS-CoV-2 cytopathic effect of CCC(=O)NC1CCc2cccc(OC)c2C1 (centres undefined) : 1.4

###

- Tested on: Vero E6 infected with SARS-CoV-2
- experimentalProtocol: morphology score (similarity to uninfected cells); higher = more like uninfected cells
- assayConditions: 24 h
If the reported morphology score equals or exceeds 0.07, assign true. If not, assign false.

Observe how each entry below is paired with its result.
compound	targetDesc	categoryLabel
N[C@@H](C(=O)O)c1ccc(C(=O)O)c(C(=O)O)c1 (racemic) (10 µM)	Vero E6 infected with SARS-CoV-2	true
COc1cc2ncnc(Nc3ccc(Cl)cc3F)c2cc1OC (10 µM)	Vero E6 infected with SARS-CoV-2	false
COc1cc(N2CCC(N3CCN(C)CC3)CC2)ccc1Nc1ncc(Cl)c(Nc2ccccc2S(=O)(=O)C(C)C)n1 (0.833333 µM)	Vero E6 infected with SARS-CoV-2	true
C=CC1=C(C)c2cc3[nH]c(cc4nc(cc5[nH]c(cc1n2)c(C)c5CCC(=O)O)C(CCC(=O)O)=C4C)c(C)c3C=C [protoporphyrin-IX] (10 µM)	Vero E6 infected with SARS-CoV-2	false
C[C@@H]1O[C@@H]1P(=O)(O)O (10 µM)	Vero E6 infected with SARS-CoV-2	false

# input Would you say CC(C)c1ccc(CC(=O)N2CCC[C@@H](c3cccc(OC(C)(C)C(=O)O)c3)C2)cc1 (10 µM) shows morphology score at minimum 0.07?
# output true

# input Has Cc1cc(Cl)ccc1OCCCC(=O)NO [droxinostat] (10 µM) a recorded morphology score greater than or equal to 0.07?
# output true

# input // inclusive: morphology score at least 0.07? input: C#Cc1cccc(Nc2ncnc3cc(OC)c(OCCCCCCC(=O)NO)cc23)c1 (0.833333 µM)
# output false

# input Hi team, for O=C(Nc1ccc(OC(F)(F)F)cc1)c1sccc1NCc1ccnc2ccccc12 (10 µM) , is the recorded morphology score at or above 0.07?
# output false

###

- System: Vero E6 infected with SARS-CoV-2
- experimentalProtocol: SARS-CoV-2 infection rate relative to infected DMSO; higher = more infection, active = 60 or less
- assayConditions: 24 h
readoutKind: SARS-CoV-2 infection rate (%)
Field: numeric (%). Do not append units.

Field SARS-CoV-2 infection rate (entry C[C@H](NC[C@H](O)CP(=O)(O)CC1CCCCC1)c1ccc(Cl)c(Cl)c1 (10 µM) ) reads 114

Lab note: NCCNc1ccc(NCCN)c2c1C(=O)c1ccncc1C2=O [pixantrone] (10 µM) gave SARS-CoV-2 infection rate of 71

response.value for Cc1ccc(Oc2ccccc2-c2csc(N=C3NCCCN3)n2)c(C)c1 [abafungin] (10 µM) (field: SARS-CoV-2 infection rate) = 100

Kindly note the recorded SARS-CoV-2 infection rate for CC(=O)NC[C@H]1CN(c2ccc(N3CCN(C(=O)CO)CC3)c(F)c2)C(=O)O1 [eperezolid] (10 µM) , which is 112

###

- Test system: Vero E6 infected with SARS-CoV-2
- experimentalProtocol: inhibition of SARS-CoV-2 cytopathic effect; higher = more antiviral protection, active = above 15
- assayConditions: 8.33 nM; 48 h
readoutKind: inhibition of SARS-CoV-2 cytopathic effect

Known results for molecules:
molecule	result
CC(C)c1nc(CN(C)C(=O)N[C@H](C(=O)N[C@@H](Cc2ccccc2)C[C@H](O)[C@H](Cc2ccccc2)NC(=O)OCc2cncs2)C(C)C)cs1	1.47% (inactive)
O=C(NCCCN1CCC2(CC1)OCc1ccccc12)[C@H]1CCCN1Cc1ccccc1	-4.12% (inactive)
CCN(CC)CCOc1ccc(C(O)(Cc2ccc(Cl)cc2)c2ccc(C)cc2)cc1 (configuration not stated)	1.69% (inactive)
CCOC(=O)c1ccc(N2NC(=O)/C(=C/c3ccc([N+](=O)[O-])o3)C2=O)cc1	-1.91% (inactive)
O=C1OC(c2ccc(O)cc2)(c2ccc(O)cc2)c2ccccc21	2.66% (inactive)
O=C(Nc1ccncc1)C(=O)c1cn(Cc2ccc(Cl)cc2)c2ccccc12	1.94% (inactive)
CCn1c(-c2nonc2N)nc2c(C#CC(C)(C)O)ncc(OC[C@H]3CCCNC3)c21	4.66% (inactive)
CCCN(CC1CC1)c1nc(C)nc(Nc2c(Cl)cc(Cl)cc2Cl)c1Cl	2.92% (inactive)

Record summary for `N=C(N)N` : reported inhibition of SARS-CoV-2 cytopathic effect = 0.17% (inactive)

The molecule listed as `CC/C(=C(/CC)c1ccc(OP(=O)(O)O)cc1)c1ccc(OP(=O)(O)O)cc1` has a reported inhibition of SARS-CoV-2 cytopathic effect of 2.21% (inactive)

Form field inhibition of SARS-CoV-2 cytopathic effect, entry `Cc1noc(-c2ccc(-c3ccc(CC(=O)O)cc3)cc2)c1NC(=O)O[C@H](C)c1ccccc1` : 0.35% (inactive)

// sample `CN(C)CCCCSC(=N)N` , its inhibition of SARS-CoV-2 cytopathic effect was -3.4% (inactive)

// `CNc1nc(-c2ccc3c(N)n[nH]c3c2)cc(N2C[C@@H](C(=O)NC3CCCCC3)CC[C@H]2C)n1` : inhibition of SARS-CoV-2 cytopathic effect value = 3.93% (inactive)

In plain terms, `CC[C@H]1OC(=O)[C@H](C)[C@@H](O[C@H]2C[C@@](C)(OC)[C@@H](O)[C@H](C)O2)[C@H](C)[C@@H](O[C@@H]2O[C@H](C)C[C@H](N(C)C)[C@H]2O)[C@](C)(O)C[C@@H](C)C(=O)[C@H](C)[C@@H](O)[C@]1(C)O` has a documented inhibition of SARS-CoV-2 cytopathic effect of -0.54% (inactive)

GET /value?item= `CN1CCN(CCCN2c3ccccc3Sc3ccc(S(=O)(=O)N(C)C)cc32)CC1` &field=inhibition of SARS-CoV-2 cytopathic effect returns 6.36% (inactive)

GET /value?item= Cc1ccc2c(c1)c1c(n2CCc2ccc(C)nc2)CCN(C)C1 [latrepirdine] &field=inhibition of SARS-CoV-2 cytopathic effect returns -0.5% (inactive)

The molecule identified as `O=C(Nc1cccc2c(=O)cc(-c3nnn[nH]3)oc12)c1ccc(OCCCCc2ccccc2)cc1` registered its inhibition of SARS-CoV-2 cytopathic effect at 2.87% (inactive)
